Assay: chemical genetic growth profiling, strain panel (AID 1159580);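 further: tested at 20 µM; growth read once vehicle control cultures reached saturation at 30 °C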
Conditions: S. cerevisiae deletion strains, growth OD, locus YER111C, strain swi4, stronger effect = lower value
The whole screen tested about 5,500 compounds, of which about 2,000 (36%) were called active. Another 18% or so got no clear call; they are omitted. The list shows a part of the results.
Define the label as TRUE when normalized growth is strictly less than 1 and as FALSE in all remaining cases.

>>> print(df.to_string())
                                   molecule    cat
0  CN(C)c1ccc(C(=C2C=CC(=[N+](C)C)C=C2)c2ccc(N(C)C)cc2)cc1   TRUE
1           CCOC(=O)c1c(C)c(Cl)c(O)c(Cl)c1O   TRUE
2  CC1=C(CC(=O)O)c2cc(F)ccc2/C1=C\c1ccc(S(C)=O)cc1 (configuration not stated)  FALSE
3              CCOC(=O)c1c(C)cc(O)c(C=O)c1O   TRUE
4  CC(C[N+](C)(C)C)OC(N)=O (configuration not stated)  FALSE

Cited source for all entries: PubChem BioAssay AID1159580
